// values below are reported excitation wavelength (excited at)
# procedureDetails: Emission and excitation scans on spectrofluorometer, approximately 1 mM in acetonitrile (Example 3)
# Format: physicochemical
measurementType: excitation wavelength (excited at) (nm)

O=S(=O)(Oc1ccccc1)c1ccc2c(c1)c1cc(-c3ccc(-c4ccccc4)cc3)ccc1[s+]2[O-] (stereo not shown) [Compound 8a] | 365
O=S(=O)(Oc1ccccc1)c1ccc2c(c1)-c1cc(-c3cccc4ccccc34)ccc1S2(=O)=O [Compound 7b] | 367
O=S(=O)(Oc1ccccc1)c1ccc2c(c1)-c1cc(-c3ccccc3)ccc1S2(=O)=O [Compound 6b] | 344
O=S(=O)(Oc1ccccc1)c1ccc2c(c1)-c1cc(-c3ccc(-c4ccccc4)cc3)ccc1S2(=O)=O [Compound 8b] | 366

The reported measurements were obtained from patent US10221153B2.
